In this section, each of the sequences is paired with its reported PBM binding z-score.
- Test system: VDR:RXRa (NR concentration 270 nM, RXRa partner concentration 90 nM)
- EXPERIMENTAL PROTOCOL: PBM binding z-score (relative to random genomic background probes); higher = stronger binding; sequences stand for … in GC…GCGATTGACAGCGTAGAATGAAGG
No unit in the answer, please; the number alone is enough.

# CHAIN SEQUENCE, PBM binding z-score
measured = [
    ("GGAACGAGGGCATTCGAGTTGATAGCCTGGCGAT", 3.37),
    ("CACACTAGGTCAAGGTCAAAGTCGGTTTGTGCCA", 5.17),
    ("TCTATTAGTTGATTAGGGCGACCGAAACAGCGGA", 0.776),
]

Please turn your attention to the following entry.
**Query** # query: PBM binding z-score of entry `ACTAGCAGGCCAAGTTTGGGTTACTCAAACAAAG`
**Result** -0.254

Where these numbers come from: the supplement of paper PMC6555819
